Assay system B1 bradykinin receptor (Homo sapiens); read-out recorded as Ki.
*1 amine or outer side, *2 acyl side, *3 side chain or, on linkers, in order; H or OH if unused. Where a SMILES comes first, the peptide text is derived from it. [ ]: non-standard residue; d: D form. The star is where a group is joined. X2 = O=C(O)CN1C(=O)[C@H](N*)CSc2ccccc21; X1 = O=C([C@@H]1CC(O)CN1[*:1])[*:2]; 2Thi = N[C@@H](Cc1cccs1)C(=O)O
# unit: nM | format: bare number

NC(N)=NCCC[C@@H](N)C(=O)N[C@@H](CCCN=C(N)N)C(=O)N1CCC[C@H]1C(=O)N1CC(O)C[C@H]1C(=O)NCC(=O)N[C@H](C(=O)N[C@@H](CO)C(=O)N[C@@H]1CSc2ccccc2N(CC(=O)O)C1=O)C1Cc2ccccc2C1 (some centres not stated)
5.6

The molecule listed as NCCCC[C@H](N)C(=O)N[C@@H](CCCN=C(N)N)C(=O)N1CCC[C@H]1C(=O)N1CC(O)C[C@H]1C(=O)NCC(=O)N[C@@H](Cc1cccs1)C(=O)N[C@@H](CO)C(=O)N[C@@H]1CSc2ccccc2N(CC(=O)O)C1=O (some centres not stated) (H-KRP[X1]G[2Thi]S-X2) has a reported Ki of 0.22

###

Target: B2 bradykinin receptor (Homo sapiens, UniProt P30411)
Test: Ability to bind to human cloned B2 receptor in competition binding experiments with [3H]- bradykinin
*1 amine or outer side, *2 acyl side, *3 side chain or, on linkers, in order; H or OH if unused. Where a SMILES comes first, the peptide text is derived from it. [ ]: non-standard residue; d: D form. The star is where a group is joined. X2 = O=C(O)CN1C(=O)[C@H](N*)CSc2ccccc21; X1 = O=C([C@@H]1CC(O)CN1[*:1])[*:2]; 2Thi = N[C@@H](Cc1cccs1)C(=O)O
measured parameter: Ki (nM)
Give the value in nM but do not write nM after it.

NC(N)=NCCC[C@@H](N)C(=O)N[C@@H](CCCN=C(N)N)C(=O)N1CCC[C@H]1C(=O)N1CC(O)C[C@H]1C(=O)NCC(=O)N[C@H](C(=O)N[C@@H](CO)C(=O)N[C@@H]1CSc2ccccc2N(CC(=O)O)C1=O)C1Cc2ccccc2C1 (some centres undefined)
325

Here is the next item to consider.
Reported Ki of NCCCC[C@H](N)C(=O)N[C@@H](CCCN=C(N)N)C(=O)N1CCC[C@H]1C(=O)N1CC(O)C[C@H]1C(=O)NCC(=O)N[C@@H](Cc1cccs1)C(=O)N[C@@H](CO)C(=O)N[C@@H]1CSc2ccccc2N(CC(=O)O)C1=O (some centres undefined) (H-KRP[X1]G[2Thi]S-X2) : 0.4

###

Target sequence: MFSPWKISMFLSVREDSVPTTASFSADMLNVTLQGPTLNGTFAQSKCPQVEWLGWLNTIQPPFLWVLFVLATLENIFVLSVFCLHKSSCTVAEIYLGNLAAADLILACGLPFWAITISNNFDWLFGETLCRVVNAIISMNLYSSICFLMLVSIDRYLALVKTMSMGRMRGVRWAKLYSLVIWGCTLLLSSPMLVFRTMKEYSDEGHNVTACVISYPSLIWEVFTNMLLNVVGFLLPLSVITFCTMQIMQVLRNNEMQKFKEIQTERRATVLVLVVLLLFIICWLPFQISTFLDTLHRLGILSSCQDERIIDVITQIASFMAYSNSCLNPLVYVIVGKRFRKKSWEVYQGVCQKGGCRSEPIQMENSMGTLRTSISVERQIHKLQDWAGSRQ
*1 amine or outer side, *2 acyl side, *3 side chain or, on linkers, in order; H or OH if unused. Where a SMILES comes first, the peptide text is derived from it. [ ]: non-standard residue; d: D form. The star is where a group is joined. X2 = O=C(O)CN1C(=O)[C@H](N*)CSc2ccccc21; X1 = O=C([C@@H]1CC(O)CN1[*:1])[*:2]; Igl = N[C@H](C(=O)O)C1Cc2ccccc2C1; Hyp = O=C(O)[C@@H]1C[C@@H](O)CN1
measured parameter: Ki (nM)

NCCCC[C@H](NC(=O)[C@@H](N)CCCCN)C(=O)N[C@@H](CCCN=C(N)N)C(=O)N1CCC[C@H]1C(=O)N1CC(O)C[C@H]1C(=O)NCC(=O)N[C@H](C(=O)N[C@@H](CO)C(=O)N[C@@H]1CSc2ccccc2N(CC(=O)O)C1=O)C1Cc2ccccc2C1 (stereo partly drawn) (H-KKRP[X1]G[Igl]S-X2)
62

P = NCCCC[C@H](N)C(=O)N[C@@H](CCCN=C(N)N)C(=O)N1CCC[C@H]1C(=O)N1C[C@H](O)C[C@H]1C(=O)NCC(=O)N[C@H](C(=O)N[C@@H](CO)C(=O)N[C@@H]1CSc2ccccc2N(CC(=O)O)C1=O)C1Cc2ccccc2C1 (H-KRP[Hyp]G[Igl]S-X2)
Q = N=C(N)NCCC[C@@H](N)C(=O)N[C@@H](CCCNC(=N)N)C(=O)N1CCC[C@H]1C(=O)N1CC(O)C[C@H]1C(=O)NCC(=O)N[C@@H](Cc1cccs1)C(=O)N[C@@H](CO)C(=O)N[C@@H]1CSc2ccccc2N(CC(=O)O)C1=O (stereo partly drawn)
### Prompt Select the item with the higher value of Ki from the options P and Q listed. Write the label of whichever entry you select.
### Response P

###

Target sequence: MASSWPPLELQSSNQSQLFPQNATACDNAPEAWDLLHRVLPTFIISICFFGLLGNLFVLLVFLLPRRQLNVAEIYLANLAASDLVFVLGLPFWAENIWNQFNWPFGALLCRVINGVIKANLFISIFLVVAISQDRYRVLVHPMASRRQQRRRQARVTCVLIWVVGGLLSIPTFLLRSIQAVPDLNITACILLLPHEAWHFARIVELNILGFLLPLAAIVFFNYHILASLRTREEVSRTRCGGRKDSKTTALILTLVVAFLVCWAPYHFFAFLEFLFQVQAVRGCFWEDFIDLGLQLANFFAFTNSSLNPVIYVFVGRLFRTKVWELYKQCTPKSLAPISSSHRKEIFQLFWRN
*1 amine or outer side, *2 acyl side, *3 side chain or, on linkers, in order; H or OH if unused. Where a SMILES comes first, the peptide text is derived from it. [ ]: non-standard residue; d: D form. The star is where a group is joined. X2 = O=C(O)CN1C(=O)[C@H](N*)CSc2ccccc21; X1 = O=C([C@@H]1CC(O)CN1[*:1])[*:2]; Igl = N[C@H](C(=O)O)C1Cc2ccccc2C1; Hyp = O=C(O)[C@@H]1C[C@@H](O)CN1
measured parameter: pKi
Formally, pKi is defined as -log10 of the concentration c, with c in mol/L.

NCCCC[C@H](N)C(=O)N[C@@H](CCCN=C(N)N)C(=O)N1CCC[C@H]1C(=O)N1C[C@H](O)C[C@H]1C(=O)NCC(=O)N[C@H](C(=O)N[C@@H](CO)C(=O)N[C@@H]1CSc2ccccc2N(CC(=O)O)C1=O)C1Cc2ccccc2C1 (H-KRP[Hyp]G[Igl]S-X2)
10.64

# evaluate next
// sample NCCCC[C@H](NC(=O)[C@@H](N)CCCCN)C(=O)N[C@@H](CCCN=C(N)N)C(=O)N1CCC[C@H]1C(=O)N1CC(O)C[C@H]1C(=O)NCC(=O)N[C@H](C(=O)N[C@@H](CO)C(=O)N[C@@H]1CSc2ccccc2N(CC(=O)O)C1=O)C1Cc2ccccc2C1 (stereo partly drawn) (H-KKRP[X1]G[Igl]S-X2) , its pKi was 10.46
